System: Fibroblast
assayInfo: Multiplex assay against human fibroblast
Format: toxicity, cell-based
testContext: 24 h, 1 µM, compound concentration 1 uM, replicate 2
readoutType: Total Cell Count
Number only, please.

Query (compound): CCc1nn(CCCN2CCN(c3cccc(Cl)c3)CC2)c(=O)n1CCOc1ccccc1.Cl [NEFAZODONE HYDROCHLORIDE] ; field requested: Total Cell Count
71

Query (compound): Cc1nc(N2CC[C@H](O)C2)ncc1-c1cc(C(F)(F)F)cc2[nH]ncc12 ; field requested: Total Cell Count
65

Query (compound): CCc1ccc(OCc2ccccc2C(=O)Nc2ccc3nc(C)cc(N)c3c2)cc1.Cl ; field requested: Total Cell Count
92

Query (compound): CC(C)OC(=O)N1CCC(Oc2ncnc3c2cnn3-c2ccc(S(C)(=O)=O)cc2F)CC1 ; field requested: Total Cell Count
116

Query (compound): O=c1[nH]c2ccccc2n1C1CCN(Cc2ccc(-c3[nH]c4cc5ncnc5cc4nc3-c3ccccc3)cc2)CC1 ; field requested: Total Cell Count
94
